molecular target: EPHB2 (UniProt P29323); experiment: phosphorylation enrichment, bacterial display (enrichment ratio); higher = better substrate or ligand; peptides without Tyr show the background;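 note: 11-residue human phosphosite peptides and single-mutation variants displayed on the E. coli surface, counted by deep sequencing, each peptide's frequency after selection divided by its frequency in the unselected input library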;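 note: frequency after pTyr selection over input frequency; kinase dosed for 20-30% of maximal phosphorylation in three min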
Sequence (P29323 whole entry, looked up): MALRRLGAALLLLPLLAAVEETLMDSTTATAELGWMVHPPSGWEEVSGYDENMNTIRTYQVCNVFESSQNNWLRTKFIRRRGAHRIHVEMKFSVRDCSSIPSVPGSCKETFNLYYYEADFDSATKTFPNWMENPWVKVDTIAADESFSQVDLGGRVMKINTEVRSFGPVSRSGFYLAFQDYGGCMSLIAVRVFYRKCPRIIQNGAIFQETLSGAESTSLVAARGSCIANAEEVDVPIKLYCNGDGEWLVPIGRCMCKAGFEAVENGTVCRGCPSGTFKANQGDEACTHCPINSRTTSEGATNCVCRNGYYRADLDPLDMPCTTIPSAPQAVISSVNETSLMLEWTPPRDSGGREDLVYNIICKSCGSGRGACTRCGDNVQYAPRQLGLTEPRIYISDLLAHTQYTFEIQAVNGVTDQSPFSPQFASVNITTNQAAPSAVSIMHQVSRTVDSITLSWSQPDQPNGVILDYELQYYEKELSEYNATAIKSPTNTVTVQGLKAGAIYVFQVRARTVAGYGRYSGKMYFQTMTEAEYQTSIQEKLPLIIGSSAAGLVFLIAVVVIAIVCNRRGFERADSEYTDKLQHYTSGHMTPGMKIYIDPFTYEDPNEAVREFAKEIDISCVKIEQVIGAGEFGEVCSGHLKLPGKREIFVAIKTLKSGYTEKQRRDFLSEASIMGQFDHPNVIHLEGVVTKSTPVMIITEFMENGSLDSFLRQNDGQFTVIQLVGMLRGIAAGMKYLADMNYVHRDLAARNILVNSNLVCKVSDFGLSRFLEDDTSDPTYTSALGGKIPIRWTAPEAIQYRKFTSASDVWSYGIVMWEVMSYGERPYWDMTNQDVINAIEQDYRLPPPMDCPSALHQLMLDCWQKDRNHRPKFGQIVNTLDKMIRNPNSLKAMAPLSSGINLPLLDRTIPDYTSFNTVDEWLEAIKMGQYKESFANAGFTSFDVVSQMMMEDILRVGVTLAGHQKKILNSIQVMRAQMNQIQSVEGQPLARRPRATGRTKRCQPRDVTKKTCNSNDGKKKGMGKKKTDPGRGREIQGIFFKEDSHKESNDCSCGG
phosphorylation enrichment below 0.6 gives no; phosphorylation enrichment at or above it gives yes.

sequence_data="GGGCGYNRSSG [FUS_Y232_G230C]" tested_on="EPHB2 (UniProt P29323)" class_name=no
sequence_data="PAVGIYNDNIN [CDCP1_Y707]" tested_on="EPHB2 (UniProt P29323)" class_name=yes
sequence_data="SILTVYSKDNF [PANK2_Y400_A398T_YF]" tested_on="EPHB2 (UniProt P29323)" class_name=no
sequence_data="PLKALYLQQRP [ATM_Y2969]" tested_on="EPHB2 (UniProt P29323)" class_name=yes
sequence_data="QGLRLYRSHLA [BTK_Y617_P619S]" tested_on="EPHB2 (UniProt P29323)" class_name=no
sequence_data="VVEVTYDDVPI [FLNB_Y1308]" tested_on="EPHB2 (UniProt P29323)" class_name=yes
sequence_data="KVGPGSLGSGG [RET_Y826_Y826S]" tested_on="EPHB2 (UniProt P29323)" class_name=no
sequence_data="RLEPVYFVAPA [LAMC2_Y250_D247E]" tested_on="EPHB2 (UniProt P29323)" class_name=yes
sequence_data="RAEAPYLLVSN [LRIG1_Y1054_Q1053P]" tested_on="EPHB2 (UniProt P29323)" class_name=no
sequence_data="QSSEGYGLGDR [KIAA1210_Y564]" tested_on="EPHB2 (UniProt P29323)" class_name=yes
sequence_data="KTDKKYLMIEE [BAG3_Y451]" tested_on="EPHB2 (UniProt P29323)" class_name=yes
sequence_data="IRFSDYVEVAD [PHACTR1_Y525]" tested_on="EPHB2 (UniProt P29323)" class_name=yes
sequence_data="PDGHEYIYVDP [PDGFRA_Y572]" tested_on="EPHB2 (UniProt P29323)" class_name=yes
sequence_data="VDTLWYKFLKR [EPM2A_Y86_F84L]" tested_on="EPHB2 (UniProt P29323)" class_name=yes
sequence_data="PGVDRYSLGTS [C5orf42_Y1451]" tested_on="EPHB2 (UniProt P29323)" class_name=yes
sequence_data="GLVFLYMEKNQ [PRELP_Y156]" tested_on="EPHB2 (UniProt P29323)" class_name=no
sequence_data="ESLRPYDVMDV [KCNQ2_Y562]" tested_on="EPHB2 (UniProt P29323)" class_name=yes
sequence_data="SSAETYSRMRL [NBEAL2_Y1835]" tested_on="EPHB2 (UniProt P29323)" class_name=no
sequence_data="PTYKHYANSTQ [SLC12A3_Y70_E68K]" tested_on="EPHB2 (UniProt P29323)" class_name=no
sequence_data="SSPQLYLVPFL [TAF4_Y652_P651L]" tested_on="EPHB2 (UniProt P29323)" class_name=yes
sequence_data="FPKDVYVDSKD [NDUFAF4_Y69_L65P]" tested_on="EPHB2 (UniProt P29323)" class_name=no
